Biological target: CaMN composed of amino acids 1–75 (UniProt P0DP23 2-76)
Assay: ITC
measurement_label: pKd
In textbook form, pKd equals minus log to base ten of the concentration in mol/L.

The recorded pKd for entry Ac-KKFNARRKLKGAILTTMLATRN-NH2 [CaMKII(291–312) peptide] equals 6.44
